Test system: human embryonic stem cell derived neural stem cells (NSCs)
protocol: Neural stem cell proliferation assay (neurogenesis assay)
Assay type: cell-based
test.context: Homo sapiens, Neural stem cell, 96 h; Table 1, novel compounds; concentration at which 150% activity of control (100%) is reached; ATP levels (CellTiterGlo) after 4 days incubation
property.name: log10 EC (150% of control) (log10 of the value in µM)
All values: log10 EC (150% of control) [µM].

In the examples that follow, each entry is paired with its recorded log10 EC (150% of control).
1) COCCNC(=O)c1ccc2cncc(-c3cccc(OC)c3)c2n1 :: -0.59
2) CC(NC(=O)c1ccc2cncc(-c3cccc(F)c3)c2n1)c1ccc(S(C)(=O)=O)cc1 (stereo not drawn) :: 0.62

What measured log10 EC (150% of control) is associated with `CS(=O)(=O)c1ccc(CNC(=O)c2ccc3cncc(-c4cc(F)ccc4F)c3n2)cc1` on human embryonic stem cell derived neural stem cells (NSCs)?
0.22

What measured log10 EC (150% of control) is associated with CC(NC(=O)c1ccc2cncc(-c3cccc(Cl)n3)c2n1)C(C)(C)O (stereo not drawn) on human embryonic stem cell derived neural stem cells (NSCs)?
0.01

###

Tested on: human embryonic stem cell derived neural stem cells (NSCs)
protocol: Neural stem cell proliferation assay (neurogenesis assay)
Format: cell-based
test.context: Homo sapiens, Neural stem cell, 96 h; Table 1, novel compounds; concentration at which 150% activity of control (100%) is reached; ATP levels (CellTiterGlo) after 4 days incubation
Measured EC (150% of control) by item
The answer is to be given in µM; state only the numeric part.

1) CC(C)(C)CNC(=O)c1ccc2cncc(-c3ccc(F)c(F)c3)c2n1 [Example 121] :: 0.26

What measured EC (150% of control) is associated with CCCCCCC(=O)NCc1ccc(-c2cncc3ccc(C(N)=O)nc23)cc1 [Example 149] on human embryonic stem cell derived neural stem cells (NSCs)?
0.07

###

Measured EC (150% of control) by item
System: human embryonic stem cell derived neural stem cells (NSCs)
protocol: Neural stem cell proliferation assay (neurogenesis assay)
Format: cell-based
test.context: Homo sapiens, Neural stem cell, 96 h; Table 1, novel compounds; concentration at which 150% activity of control (100%) is reached; ATP levels (CellTiterGlo) after 4 days incubation
The answer is to be given in µM; state only the numeric part.

1) O=C(NCC(F)(F)F)c1ccc2cncc(-c3ccc(F)cc3F)c2n1 :: 0.06

Return reported EC (150% of control); argument: CC(NC(=O)c1ccc2cncc(-c3ccc(C(F)(F)F)cc3)c2n1)C(C)(C)O (centres unmarked)
0.06

###

Test system: human embryonic stem cell derived neural stem cells (NSCs)
protocol: Neural stem cell proliferation assay (neurogenesis assay)
Assay type: cell-based
test.context: Homo sapiens, Neural stem cell, 96 h; Table 1, novel compounds; concentration at which 150% activity of control (100%) is reached; ATP levels (CellTiterGlo) after 4 days incubation
Experimental: Neural Stem Cell Proliferation Assay Neurogenic properties of small molecules are determined based on the proliferation of human embryonic stem cell derived neural stem cells (NSCs) which were derived via a dual smad inhibition as previously described (Chambers, S. M., et al., Highly efficient neural conversion of human ES and iPS cells by dual inhibition of SMAD signaling, Nature biotechnology, 2009. 27 (3): p. 275-80.) […]
property.name: EC (150% of control) (µM)
The answer is to be given in µM; state only the numeric part.

1. CC(C)(C)CNC(=O)c1ccc2cncc(-c3cccc(F)c3)c2n1 :: 0.27

Return reported EC (150% of control); argument: `O=C(NCc1cccnc1)c1ccc2cncc(-c3ccc(Cl)cc3)c2n1`
0.02

Return reported EC (150% of control); argument: `Cc1cnc(CNC(=O)c2ccc3cncc(-c4ccc(Cl)cc4)c3n2)cn1`
0.88

Return reported EC (150% of control); argument: `O=C(NCC1CC1)c1ccc2cncc(-c3ccc(Cl)cc3)c2n1`
0.01

Return reported EC (150% of control); argument: `NC(=O)c1ccc2cncc(-c3cc(F)c(F)c(F)c3)c2n1`
0.25

Return reported EC (150% of control); argument: `CS(=O)(=O)c1ccc(CNC(=O)c2ccc3cncc(-c4ccccc4F)c3n2)cc1`
0.25
